experiment_notes: yeast display, Sf9 membrane polyspecificity reagent, FACS + sequencing; frameworks hold sequencing errors
property_measured: polyreactivity (PSR sort gate)

These solved cases illustrate the format of a correct answer.
{"residue_sequence": "QVQLVESGGGLVQAGGSLRLSCAASGSIFPTYAMGCYRQAPGKERELVAAIRSGSNTYYADSVKGRFTISRDNAKNTVYLQMNSLKPEDTAVYYCNVGPQRKYPGRRTVPFGYWGQGTQVTVSS", "property_measured": "polyreactivity (PSR sort gate)", "result": "low polyreactivity"}
{"residue_sequence": "QVQLVESGGGLVQAGGSLRLSCAASGFTFYGYAMGWYRQAPGKERELVAAITSGGITNYADSVKGRFTISRDNAKNTVYLQMNSLKPEDTAVYYCNVKRRVSGYYGYKYYYWGQGTQVTVSS", "property_measured": "polyreactivity (PSR sort gate)", "result": "high polyreactivity"}
{"residue_sequence": "QVQLVESGGGLVQAGGSLRLSCAASGSTFYTYTAMGWYRQAPGKERELVAAITWRGGSTYYADSVKGRFTISRDNAKNTVYLQLNSLKPEDTAVYYCNTVHYYRDYDYWGQGTQVTVSS", "property_measured": "polyreactivity (PSR sort gate)", "result": "high polyreactivity"}
{"residue_sequence": "QVQLVESGGGLVQAGGSLRLSCAASGSTLSAYVMGWYRQAPGKERELVAAITRGGNTYYADSVKGRFTISRDNAKNTVYLQMNSLKPEDTAVYYCAARTYVSYGYYTRNYWGQGTQVTVSS", "property_measured": "polyreactivity (PSR sort gate)", "result": "high polyreactivity"}

In: # query: polyreactivity (PSR sort gate) of entry QVQLVESVGGLVQAGGSLRLSCAASGITSYRYTKGWYRQAPGKARELVAAITISGGRTYYGDSVKGRFTISRDNAKNTVYLQLNSLKPEDTAVYYCAAGWRSGFDYWGQGTQVTVSS
Out: high polyreactivity

In: # query: polyreactivity (PSR sort gate) of entry QVQLVESGGGLVQAGGSLRLSCAASGITFASNTMGCYIQAPGKERELVAAITRGDNTYYADSVKGRFTISRDNAKNTVYLQMNSLKAEDPAVYYCATEGYQIQYEHDYWGQGTQVTVSS
Out: low polyreactivity

In: # query: polyreactivity (PSR sort gate) of entry QVQLVESGGGLVQAGGSLRLSCAASGRTFIRYAMAWYRQAPGKGRELLAANNWSGSTYYADSVKGRFTISRDNAKNTVYVQINSLKPEDTAVYYCAAYPYGVTNAYGSWGQGTQVTVSS
Out: high polyreactivity

In: # query: polyreactivity (PSR sort gate) of entry QVQLVESGGGLVQAGGILRLSCAASGFIIRGNVMGWYRQAPGKERELVAAISGRGGSTYYADSVKGRFTISRDNAKNTVYLQMNSLKPEDTAVYYCNAAGLYNSRLDYWGQGTQVTVSS
Out: high polyreactivity

----------
experiment_notes: yeast display, Sf9 membrane polyspecificity reagent, FACS + sequencing; frameworks hold sequencing errors
property_measured: polyreactivity (PSR sort gate)

{"residue_sequence": "QVQLVESGGGLVQAGGSLRLSCAASGFTFRYYAMGWYRQAAGKDRELVAAISSGGRTYYADSVKGRFKISRDNAKNTVYLQMNSLKPADTAVYYCNASRHFRRVEYDYWGQGTQVTVSS", "result": "high polyreactivity"}
{"residue_sequence": "QVQHVESGGGLVQAGGSLRLSCAASGRTTYTNARGWYRQAPGKERELVASISWRGGSSYYADSVKGRFTISRDNAKNTVYLQMNSLIPEDTAVYYCAASWPRWWRFGYWGQGTQVTVSS", "result": "low polyreactivity"}
{"residue_sequence": "QVQLVESGGCLVQAGGSLRLSCAASGSTFPVYSMGWYRQAPGKERELVAAISYSGGSTNYADSVKGRFTISRDNAKNTVYLQMNSLKPEDTAVYYFAADTESHHEGNYWGQGTQVTVSS", "result": "low polyreactivity"}
{"residue_sequence": "QVQLVESGGGLVQAGGSLRLSCAAYGIIFAYNAMGWYRQAPGKERELVATITDSGGSTSYADSEKGRFTISRDNAKNTVYLQMNSLKPEDTAVYYCAVLPVYWYWRNYVYLSGYDYWGQGTQVTVSS", "result": "low polyreactivity"}

In: # query: polyreactivity (PSR sort gate) of entry QVQLVESGGGLVQAGGSLRLSCAASGIIFGRYAMGWYRQAPGKERELVAAISTSGGSTYYADSVKGRFTISRDNAKNTVYLQMNSLKPEDTAVYYCAARHREAQRRYDYWGQGTQVTVSS
Out: high polyreactivity

In: # query: polyreactivity (PSR sort gate) of entry QVQLVESGGGLVQAGGSLRLSCAASGRIFRSNAMGWYRQAPGKERELVAAISGSGSTTNYADSVKGRFTISRDNAKNTVYLQMNSLKPEDTAVYYCATGKRGVSGRGFRYDYWGQGTQVTVSS
Out: high polyreactivity
